- Assayed target: T1, HLA-DR15 (HLA-DRB1*15:01) (human)
- T1 construct: mature; purified from homozygous EBV-transformed lymphoblastoid cells with antibody L243
- Test description: competition ELISA vs biotin-A3 152-166
No end group written: not given here.
Observed property: relative affinity

In [3]: df
Out[3]:
                                binder  observed_property  quantitative_readout
0  AKYLMELTMLDYDMV-NH2 [CCNB1 323-337]  relative affinity                     2
1  HQIRQMEMKILRALN-NH2 [CCNB1 280-294]  relative affinity                   0.3
2  HTLAKYLMELTMLDY-NH2 [CCNB1 320-334]  relative affinity                     3
3    AKINMAGAKRVPTAP-NH2 [CCNB1 17-31]  relative affinity                   120
4  LHFLRRASKIGEVDV-NH2 [CCNB1 303-317]  relative affinity                    17
5  NSALVQDLAKAVAKV-NH2 [CCNB1 419-433]  relative affinity                     7
6  PQLNSALVQDLAKAV-NH2 [CCNB1 416-430]  relative affinity                    71
7  AKISTLPQLNSALVQ-NH2 [CCNB1 410-424]  relative affinity                    12
8     MALRVTRNSKINAEN-NH2 [CCNB1 1-15]  relative affinity                     5

Just for reference, patent US20180086804A1 is where these values come from.
